target: μ opiate receptor (MOR) (Rattus norvegicus, UniProt P33535); construct: from tissue; host or cells: striatal tissue (membrane preparation); experiment: MOR agonist activity, [35S]GTPγS binding assay using striatal membranes; assay type: biochemical; conditions: 1 μM compound + 1 μM β-funaltrexamine
Sequence (P33535 whole entry): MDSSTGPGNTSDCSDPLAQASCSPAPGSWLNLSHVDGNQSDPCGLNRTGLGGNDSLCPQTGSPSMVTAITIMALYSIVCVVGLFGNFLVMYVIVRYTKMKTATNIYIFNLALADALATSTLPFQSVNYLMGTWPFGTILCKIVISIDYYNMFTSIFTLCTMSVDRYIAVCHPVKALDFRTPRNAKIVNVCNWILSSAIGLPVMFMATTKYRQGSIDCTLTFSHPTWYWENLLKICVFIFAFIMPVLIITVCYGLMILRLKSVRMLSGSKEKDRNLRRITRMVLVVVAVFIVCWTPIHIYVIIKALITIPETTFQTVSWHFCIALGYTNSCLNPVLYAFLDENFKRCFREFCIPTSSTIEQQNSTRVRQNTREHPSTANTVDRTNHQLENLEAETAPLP
Entries and their [35S]GTPγS binding to Gαo, FLNA-binding compound as agonist 1 μM + BFNA values follow.
All answers are understood in %, so give the number only.

Recorded results for 4 molecules are shown here.
| molecule | reported result |
| --- | --- |
| CC1CN(CC(O)COc2cccc(C(F)(F)F)c2)CC(C)O1 (centres unmarked) [Compound A0051] | 211.6 |
| CC1CCC(C(C)C)C(OCC(O)CN2CC(C)CC(C)C2)C1 (centres unmarked) [Compound A0008] | 133.9 |
| CC1CCC(C(C)C)C(OCC(O)CN2CCOCC2)C1 (centres unmarked) [Compound A0004] | 86.0 |
| CC1CCC(C(C)C)C(OCC(O)CN2CCN(CCc3ccccc3)CC2)C1 (centres unmarked) [Compound A0020] | 67.4 |

// next entry
Query: Provide [35S]GTPγS binding to Gαo, FLNA-binding compound as agonist 1 μM + BFNA, recorded with μ opiate receptor (MOR) (Rattus norvegicus, UniProt P33535), of OC(COc1ccc(Br)c(F)c1)CN1CCSCC1 (centres unmarked) [Compound A0059]
Result: 85.7

----------
target: μ opiate receptor (MOR) (Rattus norvegicus, UniProt P33535); construct: from tissue; host or cells: striatal tissue (membrane preparation); assay: MOR agonist activity, [35S]GTPγS binding assay using striatal membranes; format: biochemical; details: relative to DAMGO + BFNA
In plain terms, low % DAMGO + BFNA, meaning strictly below 200%, gives 1 (yes), and everything else gives 0 (no).

| compound | system | category label |
| --- | --- | --- |
| CC1CN(CC(O)COc2cc(F)cc(F)c2)CC(C)O1 (stereo not drawn) [Compound A0046] | μ opiate receptor (MOR) (Rattus norvegicus, UniProt P33535) | 1 (yes) |
| CC1CCC(C(C)C)C(OCC(O)CN2CCc3ccccc32)C1 (stereo not drawn) [Compound A0065] | μ opiate receptor (MOR) (Rattus norvegicus, UniProt P33535) | 1 (yes) |
| OC(COc1ccccc1Br)CN1CCN(CCN2CCOCC2)CC1 (stereo not drawn) [Compound A0064] | μ opiate receptor (MOR) (Rattus norvegicus, UniProt P33535) | 1 (yes) |

Query: Lab note: confirm whether the reported % DAMGO + BFNA for this compound is below 200%, equality not counting. compound: CC1CCC(C(C)C)C(OCC(O)CN2CCOc3ccccc32)C1 (stereo not drawn) [Compound A0066]
Result: 1 (yes)

Query: Dear reviewer, please state whether CC1CCC(C(C)C)C(OCC(O)CN2CC(C)OC(C)C2)C1 (stereo not drawn) [Compound A0032-1] has % DAMGO + BFNA strictly beneath 200%.
Result: 0 (no)

Query: Is % DAMGO + BFNA of COc1ccc(OCC(O)Cn2ccc3ccccc32)cc1 (stereo not drawn) [Compound A0077] strictly below 200%?
Result: 0 (no)

Query: Problem: For the compound CC1CCC(C(C)C)C(OCC(O)CN2CCN(Cc3ccccc3)CC2)C1 (stereo not drawn) [Compound A0072] , is % DAMGO + BFNA under 200%?
Result: 0 (no)

Query: Field: below-cutoff. Rule: recorded % DAMGO + BFNA strictly less than 200%. Subject: COc1ccc(OCC(O)CN2CCC(=O)CC2)cc1 (stereo not drawn) [Compound A0071]
Result: 0 (no)

Query: hey, is % DAMGO + BFNA for COc1ccc(OCC(O)CN2CCCc3ccccc32)cc1 (stereo not drawn) [Compound A0067] lower than 200% or not?
Result: 1 (yes)

Query: Quick check: % DAMGO + BFNA of COc1ccc(OCC(O)CN2CCOc3ccccc32)cc1 (stereo not drawn) [Compound A0076] under 200%?
Result: 1 (yes)

Query: Find out if reported % DAMGO + BFNA for COc1ccc(OCC(O)CN2CCN(Cc3ccccc3)CC2)cc1 (stereo not drawn) [Compound A0073] is less than 200%
Result: 0 (no)

Query: Report whether reported % DAMGO + BFNA is lower than 200% (strictly) for COc1ccc(OCC(O)CN2CCc3cc4c(c(OC)c3C2)OCO4)cc1 (stereo not drawn) [Compound A0070]
Result: 0 (no)

Query: Is % DAMGO + BFNA strictly under 200% for the entry OC(CN1CCc2ccccc2C1)OCc1ccc(Br)c(F)c1 (stereo not drawn) [Compound A0057] ?
Result: 1 (yes)

Query: Given OC(COc1ccc(Br)c(F)c1)CN1CCN(CCN2CCOCC2)CC1 (stereo not drawn) [Compound A0063] , is recorded % DAMGO + BFNA strictly lower than 200%?
Result: 1 (yes)

Query: Strictly below 200% in % DAMGO + BFNA? CC1CCC(C(C)C)C(OCC(O)CN(C(C)C)C(C)C)C1 (stereo not drawn) [Compound A0037]
Result: 1 (yes)

----------
Collected % DAMGO (1 μM) values appear next to each entry.
molecular target: μ opiate receptor (MOR) (Rattus norvegicus); construct: from tissue; host or cells: striatal tissue (membrane preparation); assay: MOR agonist activity, [35S]GTPγS binding assay using striatal membranes; assay type: biochemical; settings: relative to DAMGO, 1 μM
Give a bare numeral; the unit % is implied.

Query: // output % DAMGO (1 μM); input CC1CN(CC(O)COc2cc(F)cc(F)c2)CC(C)O1 (stereo not shown) ; system μ opiate receptor (MOR) (Rattus norvegicus)
Result: 128.3

Query: Return reported % DAMGO (1 μM) for target or system μ opiate receptor (MOR) (Rattus norvegicus), item CC1CCC(C(C)C)C(OCC(O)CN(C(C)C)C(C)C)C1 (stereo not shown) .
Result: 85.6

Query: Recall the reported % DAMGO (1 μM) of CC1CCC(C(C)C)C(OCC(O)CN2CCc3ccccc32)C1 (stereo not shown) on μ opiate receptor (MOR) (Rattus norvegicus) and write it down.
Result: 115.7

Query: Give reported % DAMGO (1 μM) for CC1CCC(C(C)C)C(OCC(O)CN2CCOc3ccccc32)C1 (stereo not shown) (μ opiate receptor (MOR) (Rattus norvegicus))
Result: 89.0

Query: GET % DAMGO (1 μM) where system = μ opiate receptor (MOR) (Rattus norvegicus) and item = COc1ccc(OCC(O)CN2CCOc3ccccc32)cc1 (stereo not shown)
Result: 78.6

Query: Using μ opiate receptor (MOR) (Rattus norvegicus) as the test system, report measured % DAMGO (1 μM) of COc1ccc(OCC(O)Cn2ccc3ccccc32)cc1 (stereo not shown) .
Result: 132.3

Query: Please respond with reported % DAMGO (1 μM) (system μ opiate receptor (MOR) (Rattus norvegicus)) for OC(CN1CCc2ccccc2C1)OCc1ccc(Br)c(F)c1 (stereo not shown) .
Result: 83.3

Query: Print μ opiate receptor (MOR) (Rattus norvegicus) % DAMGO (1 μM) for COc1ccc(OCC(O)CN2CCC(=O)CC2)cc1 (stereo not shown) .
Result: 122.9

Query: Provide the reported % DAMGO (1 μM) (system: μ opiate receptor (MOR) (Rattus norvegicus)) for COc1ccc(OCC(O)CN2CCCc3ccccc32)cc1 (stereo not shown)
Result: 115.8

Query: Consider the compound COc1ccc(OCC(O)CN2CCN(Cc3ccccc3)CC2)cc1 (stereo not shown) tested on μ opiate receptor (MOR) (Rattus norvegicus); state its % DAMGO (1 μM).
Result: 103.7

----------
target: μ opiate receptor (MOR) (Rattus norvegicus, UniProt P33535); construct: from tissue; host or cells: striatal tissue (membrane preparation); test: MOR agonist activity, [35S]GTPγS binding assay using striatal membranes; type: biochemical; details: 1 μM compound + 1 μM β-funaltrexamine
Measured [35S]GTPγS binding to Gαo, FLNA-binding compound as agonist 1 μM + BFNA of individual entries
Answer with the number, then the unit.

Worked set:
| molecule | system | reported result |
| --- | --- | --- |
| CC1CCC(C(C)C)C(OCC(O)CN2CCN(Cc3ccccc3)CC2)C1 (centres unmarked) | μ opiate receptor (MOR) (Rattus norvegicus, UniProt P33535) | 171.8% |
| CC1CCC(C(C)C)C(OCC(O)CN2CCCc3ccccc32)C1 (centres unmarked) | μ opiate receptor (MOR) (Rattus norvegicus, UniProt P33535) | 98.1% |
| CC1CN(CC(O)COc2ccc(Br)c(F)c2)CC(C)O1 (centres unmarked) | μ opiate receptor (MOR) (Rattus norvegicus, UniProt P33535) | 50.6% |

Query: Identify measured [35S]GTPγS binding to Gαo, FLNA-binding compound as agonist 1 μM + BFNA corresponding to OC(COc1cccc(F)c1)CN1CCc2ccccc2C1 (centres unmarked)
Result: 33.5%

Query: Please give the documented [35S]GTPγS binding to Gαo, FLNA-binding compound as agonist 1 μM + BFNA of CC1CCC(C(C)C)C(OCC(O)CN2CCSCC2)C1 (centres unmarked)
Result: 17.1%

Query: For the molecule CC1CCC(C(C)C)C(OCC(O)CN2CCCC2=O)C1 (centres unmarked) , report [35S]GTPγS binding to Gαo, FLNA-binding compound as agonist 1 μM + BFNA.
Result: 88.6%

Query: Specify reported [35S]GTPγS binding to Gαo, FLNA-binding compound as agonist 1 μM + BFNA for the molecule shown: CC1CN(CC(O)COc2ccc(Cl)cc2)CC(C)O1 (centres unmarked)
Result: 116.5%

Query: Identify [35S]GTPγS binding to Gαo, FLNA-binding compound as agonist 1 μM + BFNA associated with the molecule COc1ccc(OCC(O)Cn2ccc3ccccc32)cc1 (centres unmarked)
Result: 103.5%

Query: Give the measured [35S]GTPγS binding to Gαo, FLNA-binding compound as agonist 1 μM + BFNA for OC(COc1cccc(C(F)(F)F)c1)CN1CCc2ccccc2C1 (centres unmarked)
Result: 114.1%

Query: Please indicate [35S]GTPγS binding to Gαo, FLNA-binding compound as agonist 1 μM + BFNA recorded for CC1CN(CC(O)COc2ccccc2)CC(C)O1 (centres unmarked)
Result: 52.2%

Query: Fill in reported [35S]GTPγS binding to Gαo, FLNA-binding compound as agonist 1 μM + BFNA for this entry: CC1CCC(C(C)C)C(OCC(O)CN2CCN(CCCN3CCOCC3)CC2)C1 (centres unmarked)
Result: 120.8%

Query: Supply recorded [35S]GTPγS binding to Gαo, FLNA-binding compound as agonist 1 μM + BFNA for CC1CCC(C(C)C)C(OCC(O)CN2CCCCC2)C1 (centres unmarked) here.
Result: 23.5%

Query: Indicate the recorded [35S]GTPγS binding to Gαo, FLNA-binding compound as agonist 1 μM + BFNA value for this molecule: CC1CN(CC(O)COc2ccccc2C(C)C)CC(C)O1 (centres unmarked)
Result: 22.3%

Query: For the molecule OC(COc1ccc(Br)c(F)c1)CN1CCCCC1 (centres unmarked) , report [35S]GTPγS binding to Gαo, FLNA-binding compound as agonist 1 μM + BFNA.
Result: 59.9%

Query: Output measured [35S]GTPγS binding to Gαo, FLNA-binding compound as agonist 1 μM + BFNA for this item: CC1CN(CC(O)COc2cccc(N(C)C)c2)CC(C)O1 (centres unmarked)
Result: 89.5%

Query: Please supply the value of reported [35S]GTPγS binding to Gαo, FLNA-binding compound as agonist 1 μM + BFNA for the item CN(C)c1cccc(OCC(O)CN2CCc3ccccc3C2)c1 (centres unmarked)
Result: 81.0%

Query: Note [35S]GTPγS binding to Gαo, FLNA-binding compound as agonist 1 μM + BFNA for the molecule shown: CC1CCC(C(C)C)C(OCC(O)CN(C(C)C)C(C)C)C1 (centres unmarked)
Result: 104.6%

Query: # return recorded [35S]GTPγS binding to Gαo, FLNA-binding compound as agonist 1 μM + BFNA for entry COc1ccc(OCC(O)CN2CCc3ccccc3C2)cc1 (centres unmarked)
Result: 15.1%

Query: Answer with the recorded [35S]GTPγS binding to Gαo, FLNA-binding compound as agonist 1 μM + BFNA for the molecule listed here: CC1CCC(C(C)C)C(OCC(O)Cn2ccc3ccccc32)C1 (centres unmarked)
Result: 147.8%

Query: Consider the molecule CC1CCCC(OCC(O)CN2CC(C)OC(C)C2)C1 (centres unmarked) and give its recorded [35S]GTPγS binding to Gαo, FLNA-binding compound as agonist 1 μM + BFNA.
Result: 12.1%
